Reference for the values: ChEMBL document CHEMBL1201862

The compounds listed here are annotated with their GI50.
- Tested on: U-251
- assay-details: NCI tumour cell line growth inhibition, 48 h
Activity calls are given as the source filed them. Cut-off read from the data, not from the text of the source: active = GI50 up to about 1.1 µM and inactive = higher.

Some solved entries appear below for comparison.
compound	GI50
Cc1cc(C(F)(F)F)cc(-n2nc(NS(=O)(=O)c3cc(C)c(Cl)cc3S)nc2N)n1	42.2 µM (inactive)
O=C(CN1CCCC1=O)CS(=O)(=O)c1ccccc1	> 100 µM (inactive)
CCOC(=O)/N=c1/nc(N(C)C)ss1	> 100 µM (inactive)

Using the record for O=c1[nH]c2nccnc2c2c([N+](=O)[O-])cccc12 , report its GI50.
> 100 µM (inactive)

Try this compound too: CCOC(=O)CC(=O)NC1CC2CCC1(C)C2(C)C (stereo unspecified)
> 100 µM (inactive)

Note, next up: C[Si]1(C)C(c2ccccc2)=CC2C(c3ccccc3)(c3ccccc3)OC21c1ccccc1 (stereo unspecified)
> 100 µM (inactive)

Also C=CCc1ccc(Oc2cc(CC=C)c3c(c2O)O[C@@H](CO)[C@H]3c2ccc(O)c(-c3cc(CC=C)ccc3O)c2)cc1 , if possible.
23.1 µM (inactive)

Please answer likewise for CCOC(=O)O/N=C1/C(=C2/C(=O)Nc3ccccc32)Nc2ccccc21
9.14 µM (inactive)

* * *

- Test system: K562
- assay-details: NCI tumour cell line growth inhibition, 48 h
Active and inactive are the calls of the source. Rule as the data show it: active = GI50 up to about 1.1 µM and inactive = higher.
# GI50 listing for each entry below

These recorded examples may help you get a feel for the data.
>>> print(df.to_string())
                                   compound            measured
0     Cc1ccc(NNc2cc(=O)[nH]c(=O)[nH]2)cc1Cl  2.99 µM (inactive)
1  COc1cc(NCC(C#N)C#N)ccc1/N=N/c1ccc(Cl)cc1  22.1 µM (inactive)

Please report the recorded GI50 for C=C1C(=O)C=C[C@]2(C)CC[C@H]3C(=C)C(=O)O[C@@H]3[C@@H]12 .
1.39 µM (inactive)

What about CON(C)C(=O)C(C)NC(=O)OCc1ccccc1 (stereo unspecified) ?
> 100 µM (inactive)

O=C(c1ccc2ccccc2c1)C1S(=O)(=O)OCCOS1(=O)=O , same question.
> 100 µM (inactive)

Input COC(=O)c1ccccc1C1CN=NC12Cc1ccc3ccccc3c1C2=O (stereo unspecified)
> 100 µM (inactive)

Next: CN1C(Cl)=NS(=O)(=O)c2ccccc21
> 100 µM (inactive)

Please give the result for CC12CCC(/C(=N/c3ccc([N+](=O)[O-])cc3)C1=O)C2(C)C (stereo unspecified) too.
19 µM (inactive)

// query: Cc1csc2[n+]1C(=O)/C(=C\c1ccc([N+](=O)[O-])cc1)S2
26.8 µM (inactive)

Next compound: CC1=CC(=O)/C(=C/NC(=S)Nc2ccccc2)C(=O)O1
> 100 µM (inactive)

What about CCOC(=O)/N=c1/nc(N(C)C)ss1 ?
> 100 µM (inactive)

* * *

Measured GI50 of individual entries
- System: T47D
- assay-details: NCI tumour cell line growth inhibition, 48 h
Active and inactive are the calls of the source. No stated cut-off is given here; in the data, active = GI50 up to about 1.1 µM and inactive = higher.

# annotated cases, reported GI50 shown
                           smiles_str             measured
0  CN(C)C(=S)/N=c1\ssc(=S)n1Cc1ccccc1   6.31 µM (inactive)
1                Cc1cccc(Br)[n+]1[O-]  > 100 µM (inactive)

Give the reported GI50 for CCOC(=O)c1ccc(Nc2nc3ccccc3nc2-c2cccs2)cc1 (system: T47D).
16.9 µM (inactive)

And COc1cc(Nc2nc3cc(C(F)(F)F)ccc3n3cccc23)cc(OC)c1OC ?
2.96 µM (inactive)

* * *

Measured GI50 accompanies every entry in the list below.
- Tested on: SF-268
- assay-details: NCI tumour cell line growth inhibition, 48 h
Calls of active or inactive are those of the source. Rule as the data show it: active = GI50 up to about 1.1 µM and inactive = higher.

compound	GI50
c1ccc2c(c1)[nH]c1nc3cc(-c4ccc5nc6c(nc5c4)[nH]c4ccccc46)ccc3nc12	> 100 µM (inactive)

Please look up its GI50: CN(C)CC(/C(Cc1ccccc1)=N\NC(=S)NN)c1ccccc1 (stereo not given)
> 100 µM (inactive)

Same question, O=C1C[C@H](Sc2ccccc2)C2(OCCO2)[C@H]2ON3CCC[C@@H]3[C@@H]12 this time
1.65 µM (inactive)

Item: FC1(F)ON2CCc3ccccc3C2[C@H]1c1ccccc1 (stereo not given in full)
> 10 µM (inactive)

Please do the same for Fc1ccccc1-c1nn2c(C34CC5CC(CC(C5)C3)C4)nnc2s1 as well.
> 100 µM (inactive)

Please give the result for CCC1(CC)C(=O)N(C(=O)c2ccc(C)cc2)N(C(=O)c2ccc(C)cc2)C1=O too.
27.7 µM (inactive)

And then c1ccc([P+](CCCCCC[P+](c2ccccc2)(c2ccccc2)c2ccccc2)(c2ccccc2)c2ccccc2)cc1 , what is it?
3.49 µM (inactive)

Now the compound Cc1ccc(NNc2cc(=O)[nH]c(=O)[nH]2)cc1Cl
43.2 µM (inactive)

Now the compound COc1ccc2nc(-c3cccs3)cc(C(O)CN3CCSCC3)c2c1 (stereo not given)
27 µM (inactive)

Please give the result for CCCSc1ccc2[nH]c(N3C(=O)/C(=C/c4cc(OC)c(OC)c(OC)c4)N=C3c3ccccc3)cc2c1 too.
11 µM (inactive)

How about COC(=O)C(Cc1ccccc1I)C1=CCC2(CC1)OCCO2 (stereo not given) ?
41.3 µM (inactive)

Next compound up: COc1cc2oc(=O)cc(C)c2cc1O
> 100 µM (inactive)

Also check O=C(O)c1ccc([Se][Se]c2ccc(C(=O)O)cc2)cc1
33.9 µM (inactive)

How about Nc1ccc(Oc2ccc(C34CC5C6CC7(c8ccc(Oc9ccc(N)cc9)cc8)CC5C(C3)C(C7)C6C4)cc2)cc1 ?
> 100 µM (inactive)

Could you do the same for CC(=O)OCC12CN(C#N)C3C4COC(CC41)C1(C(=O)N(C)c4ccccc41)C32 (stereo not given) , please?
29.1 µM (inactive)

* * *

- Tested on: HL-60
- assay-details: NCI tumour cell line growth inhibition, 48 h
Active and inactive are the calls of the source. Rule as the data show it: active = GI50 up to about 1.1 µM and inactive = higher.
Outcome (select one): true = active, false = inactive

Solved cases below.
In [3]: df
Out[3]:
                                   molecule  assigned_class
0  Cc1cc(O)nc(NNC(C#N)c2cccc([N+](=O)[O-])c2)n1 (stereo unspecified)           false
1     S=C(N/N=C(/c1ccccc1)c1ccccn1)N1CCCCC1            true
2   Cc1ccc(NC(=O)C(=O)Cc2cccc[n+]2[O-])cc1C           false
3  CC[C@@H]1CC[C@@H]2[C@H](CC[C@]3(C)[C@@H](O[N+](=O)[O-])CC[C@@H]23)[C@H]1C(C)=O           false
4  O=[N+]([O-])c1ccc(-n2nc3ccc4nonc4c3n2)cc1           false

So what was the verdict on Cc1cc(O)nc(NNC(C#N)c2ccco2)n1 (stereo unspecified) in this test?
false

Also O=c1[nH]nc(-c2ccccc2)n1Nc1ccccc1 , if possible.
false

Now this one: O=C(c1ccc(Cl)cc1)N1CCN=C1c1cc2ccccc2c2ccccc12
false

Quick one: COc1ccc2nc(-c3cccs3)cc(C(O)CN3CCSCC3)c2c1 (stereo unspecified)
false

And the next one, C[Si]1(C)C(c2ccccc2)=CC2C(c3ccccc3)(c3ccccc3)OC21c1ccccc1 (stereo unspecified) ?
false

Input O=S1(=O)CS(=O)(=O)OCCCO1
false

And the next one, O=C1CN(c2ccc(Cl)cc2)C(=O)CN1NCNN1CC(=O)N(c2ccc(Cl)cc2)CC1=O ?
false

* * *

compounds and their reported GI50
- Test system: EKVX
- assay-details: NCI tumour cell line growth inhibition, 48 h
Activity calls are given as the source filed them. Rule as the data show it: active = GI50 up to about 1.1 µM and inactive = higher.

Example compounds with recorded GI50:
>>> df
                                   compound             measured
0  O=C1C[C@H](Sc2ccccc2)C2(OCCO2)[C@H]2ON3CCC[C@@H]3[C@@H]12   2.53 µM (inactive)
1  CCCCCCCCCCCCCC(=O)OCC(C[As](=O)(O)O)OC(=O)CCCCCCCCCCCCC (stereo not given)  > 100 µM (inactive)

Quick check: GI50 of N#CC1=C(N)OC2=C(CCCc3ccc([N+](=O)[O-])cc32)C1c1ccccc1 (stereo not given) ?
6.19 µM (inactive)

Can you check O=C(/C=C/c1ccc2c(c1)OCO2)NCc1ccco1 next?
71.6 µM (inactive)

Try this compound too: CCOC(=O)CC(=O)NC1CC2CCC1(C)C2(C)C (stereo not given)
> 100 µM (inactive)

Then CS/C(=N\S(=O)(=O)c1ccc(Cl)cc1)NCCN/C(=N/S(=O)(=O)c1ccc(Cl)cc1)SC ?
18.7 µM (inactive)

Entry CC(C)(C)OC(=O)N(CCCN)CCCCN please
> 100 µM (inactive)
